ASSAY TEXT: log P determination by HPLC on a phase inversion column (C18), EEC Directive 79/831 Annex V.A8
Format: physicochemical
MEASUREMENT CONTEXT: HPLC-MS method a): C18 column, gradient 10% to 95% acetonitrile (0.1% formic acid) / water (0.09% formic acid), oven 55° C.
OBSERVATION TYPE: chromatographic logP
Field format: numeric only.

{"columns": ["MOLECULE", "chromatographic logP"],
 "data": [
  ["Cn1nc(C(F)(F)C(F)(F)F)c(C(F)(F)F)c1-n1cc(-c2ccc(Cl)c(C(=O)NC3(C#N)CC3)c2)cn1", 3.72]
]}

Return reported chromatographic logP; argument: Cn1nc(C(F)(F)C(F)(F)F)c(C(F)(F)F)c1-n1cc(Br)cn1 [Intermediate (12)]
4.14

Return reported chromatographic logP; argument: Cn1nc(C(F)(F)C(F)(F)F)c(C(F)(F)F)c1C(=O)Nc1ccc(Cl)c(C(=O)NCc2ccccc2)c1
3.9
